- Tested on: gluten-reactive T cells
- protocol_description: 96-well plate whole blood cytokine release, IFNγ by MAGPIX multiplex bead assay
- Assay type: cell-based, human
- condition_info: Subject 8; after oral gluten challenge; Max. 47 pg/mL
Non-standard residues stand in square brackets, D forms with d. pGlu = O=C1CC[C@@H](C(=O)O)N1
reported_property: Percent of maximal response to individual gluten peptides, IFNg

Please give Percent of maximal response to individual gluten peptides, IFNg for each item listed below.
1. (pE)PEQPIPEQPQPYPQQ-amide ([pGlu]PEQPIPEQPQPYPQQ-NH2; SMILES CC[C@H](C)[C@H](NC(=O)[C@@H]1CCCN1C(=O)[C@H](CCC(N)=O)NC(=O)[C@H](CCC(=O)O)NC(=O)[C@@H]1CCCN1C(=O)[C@@H]1CCC(=O)N1)C(=O)N1CCC[C@H]1C(=O)N[C@@H](CCC(=O)O)C(=O)N[C@@H](CCC(N)=O)C(=O)N1CCC[C@H]1C(=O)N[C@@H](CCC(N)=O)C(=O)N1CCC[C@H]1C(=O)N[C@@H](Cc1ccc(O)cc1)C(=O)N1CCC[C@H]1C(=O)N[C@@H](CCC(N)=O)C(=O)N[C@@H](CCC(N)=O)C(N)=O) [Peptide 3]
2. (pE)QPFPEQPEQIIPQQP-amide ([pGlu]QPFPEQPEQIIPQQP-NH2; SMILES CC[C@H](C)[C@H](NC(=O)[C@H](CCC(N)=O)NC(=O)[C@H](CCC(=O)O)NC(=O)[C@@H]1CCCN1C(=O)[C@H](CCC(N)=O)NC(=O)[C@H](CCC(=O)O)NC(=O)[C@@H]1CCCN1C(=O)[C@H](Cc1ccccc1)NC(=O)[C@@H]1CCCN1C(=O)[C@H](CCC(N)=O)NC(=O)[C@@H]1CCC(=O)N1)C(=O)N[C@H](C(=O)N1CCC[C@H]1C(=O)N[C@@H](CCC(N)=O)C(=O)N[C@@H](CCC(N)=O)C(=O)N1CCC[C@H]1C(N)=O)[C@@H](C)CC) [Peptide 12]
3. (pE)QPYPQPELPYPQPQ-amide ([pGlu]QPYPQPELPYPQPQ-NH2; SMILES CC(C)C[C@H](NC(=O)[C@H](CCC(=O)O)NC(=O)[C@@H]1CCCN1C(=O)[C@H](CCC(N)=O)NC(=O)[C@@H]1CCCN1C(=O)[C@H](Cc1ccc(O)cc1)NC(=O)[C@@H]1CCCN1C(=O)[C@H](CCC(N)=O)NC(=O)[C@@H]1CCC(=O)N1)C(=O)N1CCC[C@H]1C(=O)N[C@@H](Cc1ccc(O)cc1)C(=O)N1CCC[C@H]1C(=O)N[C@@H](CCC(N)=O)C(=O)N1CCC[C@H]1C(=O)N[C@@H](CCC(N)=O)C(N)=O) [Peptide 15]
4. (pE)QPPFSEQEQPVLPQ-amide (N-terminal pyroglutamate; C-terminal amide) [Peptide 13]
5. (pE)GQQGYYPTSPQQSG-amide ([pGlu]GQQGYYPTSPQQSG-NH2; SMILES C[C@@H](O)[C@H](NC(=O)[C@@H]1CCCN1C(=O)[C@H](Cc1ccc(O)cc1)NC(=O)[C@H](Cc1ccc(O)cc1)NC(=O)CNC(=O)[C@H](CCC(N)=O)NC(=O)[C@H](CCC(N)=O)NC(=O)CNC(=O)[C@@H]1CCC(=O)N1)C(=O)N[C@@H](CO)C(=O)N1CCC[C@H]1C(=O)N[C@@H](CCC(N)=O)C(=O)N[C@@H](CCC(N)=O)C(=O)N[C@@H](CO)C(=O)NCC(N)=O) [Peptide 10]

RESULT:
89 % of max
0 % of max
4 % of max
0 % of max
0 % of max
